Data provenance: ChEMBL document CHEMBL1158683

System: ZR-75-1
Assay: Cytotoxicity against hormone-dependent human ZR751 cells
Format: functional
Conditions: read-out: ED50 (the source's name)
recordedMetric: EC50 (µg/mL)

1. COc1c(O)cc2oc(-c3ccc(O)cc3)cc(=O)c2c1O	1.2
2. C=C1C(=O)O[C@@H]2[C@@H]1[C@@H](O)C[C@H](C)[C@@](O)(C(=O)/C=C/C)[C@H]2OC(=O)/C(C)=C\C	1.4
3. C=C1C(=O)O[C@@H]2[C@@H]1CC[C@H](C)[C@@](O)(C(=O)/C=C/C)[C@H]2OC(=O)/C(C)=C\C	1.4
4. C=C1C(=O)O[C@@H]2[C@@H]1C[C@@H](O)[C@H](C)[C@@](O)(C(=O)/C=C/C)[C@H]2OC(=O)/C(C)=C\C	0.2
